test system: C33A; test: Primary qHTS to identify gynecologic anti-cancer compounds using libraries of approved drugs and bioactive compounds (AID 1345084); conditions: Gynecologic cancer cell panel viability, ATPlite luminescence, 48 h; series mostly up to 57.5 µM; note: % is set by controls: 0 for no effect and ±100 for the full control effect; nearly all actives have a fitted effect of over 55% in size
Results filed as inconclusive are left out. Calls of active or inactive are those of the source. Calls come from the whole dose curve; as a rule, active = well fitted cell-killing curve with a large enough effect; inconclusive = small, poorly fitted or top-dose-only effect, or effect the other way; inactive = flat fitted curve, though single readings scatter.
Measurement Kind: activity change, negative = cytotoxicity

Compound	Measurement Kind	Reported Measurement
Cn1c(=O)cc(N2CCCC(N)C2)n(Cc2ccccc2C#N)c1=O (centres undefined)	activity change, negative = cytotoxicity	inactive
COc1ccc(/C=C/C(=O)O[C@@H]2[C@@H](OC(C)=O)[C@@H](OC(C)=O)[C@H](O[C@H]3[C@@H]4C=CO[C@@H](O[C@@H]5O[C@H](CO)[C@@H](O)[C@H](O)[C@H]5O)[C@@H]4[C@@]4(CO)O[C@@H]34)O[C@H]2C)cc1O	activity change, negative = cytotoxicity	inactive
C[C@@H]1O[C@@H](O[C@H]2[C@H](O)[C@@H](O)[C@H](OC[C@H]3O[C@@H](OC(=O)[C@]45CCC(C)(C)C[C@H]4C4=CCC6[C@@]7(C)C[C@H](O)[C@H](O[C@@H]8O[C@H](CO)[C@@H](O)[C@H](O)[C@H]8O)[C@@](C)(C(=O)O)C7CC[C@@]6(C)[C@]4(C)CC5)[C@H](O[C@@H]4O[C@H](CO)[C@@H](O)[C@H](O)[C@H]4O)[C@@H](O)[C@@H]3O)O[C@@H]2CO)[C@H](O)[C@H](O)[C@H]1O (some centres undefined)	activity change, negative = cytotoxicity	4.28% [at 6.55 µM] (inactive)
CC(=O)O[C@H](C[C@@H](C)[C@H]1C(=O)[C@H](O)[C@@]2(C)[C@@H]3CCC4C(C)(C)[C@@H](O[C@@H]5OC[C@H](O)[C@H](O)[C@H]5O)CC[C@@]45C[C@@]35CC[C@]12C)[C@@H]1OC1(C)C (some centres undefined)	activity change, negative = cytotoxicity	inactive

The values you see were collected from PubChem BioAssay (NCATS).
